# tested-on: α7-nAChRs (Homo sapiens)
# Construct: expressed in transfected cells; host or cells: HEKtsA201 cells co-expressing TN-XXL
# Sequence (P36544 23-502): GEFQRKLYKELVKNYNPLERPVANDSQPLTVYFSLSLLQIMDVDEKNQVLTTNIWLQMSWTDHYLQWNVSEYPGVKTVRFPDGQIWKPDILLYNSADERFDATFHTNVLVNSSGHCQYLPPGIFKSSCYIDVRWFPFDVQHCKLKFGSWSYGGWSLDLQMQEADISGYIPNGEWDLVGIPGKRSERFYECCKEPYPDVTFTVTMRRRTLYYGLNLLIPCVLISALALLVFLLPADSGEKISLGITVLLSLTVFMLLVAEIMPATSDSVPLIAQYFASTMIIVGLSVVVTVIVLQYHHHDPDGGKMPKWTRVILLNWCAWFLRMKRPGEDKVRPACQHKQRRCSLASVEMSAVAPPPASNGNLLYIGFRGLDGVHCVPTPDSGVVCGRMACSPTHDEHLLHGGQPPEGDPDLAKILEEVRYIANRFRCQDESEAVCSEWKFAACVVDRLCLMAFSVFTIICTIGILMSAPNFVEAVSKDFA
# protocol: FRET functional assay (agonist/antagonist) using LGIC-CNiFERs
# Type: cell-based
# experimental-conditions: Agonist EC50 ± SD, α7
pEC50: −log10 of the molar value.
measure-name: pEC50

{"compound": "O=C(N[C@H]1CN2CCC1CC2)c1ccc(Cl)cc1 [PNU-282987, reference compound]", "tested-on": "α7-nAChRs (Homo sapiens)", "endpoint-value": 6.96}

###

# tested-on: 5HT3A receptors (Mus musculus)
# Construct: expressed in transfected cells; host or cells: HEK293 cells co-expressing TN-XXL
# Sequence (P23979 24-489): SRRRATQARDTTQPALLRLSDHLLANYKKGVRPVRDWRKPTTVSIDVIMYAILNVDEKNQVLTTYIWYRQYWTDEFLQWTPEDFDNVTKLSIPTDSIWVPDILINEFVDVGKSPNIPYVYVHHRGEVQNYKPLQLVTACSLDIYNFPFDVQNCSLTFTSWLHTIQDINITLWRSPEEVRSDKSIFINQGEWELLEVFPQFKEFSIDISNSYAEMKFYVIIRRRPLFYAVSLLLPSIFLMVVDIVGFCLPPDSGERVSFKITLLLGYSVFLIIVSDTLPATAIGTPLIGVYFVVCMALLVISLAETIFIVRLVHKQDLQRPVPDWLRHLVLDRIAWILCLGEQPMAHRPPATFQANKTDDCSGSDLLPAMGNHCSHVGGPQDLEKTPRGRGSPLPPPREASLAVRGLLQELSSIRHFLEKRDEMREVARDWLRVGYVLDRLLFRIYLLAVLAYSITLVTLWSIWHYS
# protocol: Intact cell competitive radioligand binding assay ([3H]-granisetron, SPA), LGIC-CNiFERs
# experimental-conditions: Kd ± SD, 5HT3A, >10 = did not pass initial screen at 10 μM
Entries and their Kd values follow.

{"compound": "c1cc2c(cc1-c1cn(C3CN4CCC3CC4)nn1)OCO2 (centres unmarked)", "Kd": "0.02 to 0.05 µM"}
{"compound": "COC(=O)c1cc(-c2cn(C3CN4CCC3CC4)nn2)ccc1N (centres unmarked)", "Kd": "0.04 µM"}
